tested on: PC-3; assay: Cytotoxicity against human PC3 cells assessed as growth inhibition at 50 uM after 48 hrs by SRB method; format: functional; conditions: PC-3, 48 h, read-out: GI
Collected inhibition of growth at 50 µM values appear next to each entry.
Form entry: value (%) — number only.

A selection of reference data follows.
compound	measurement target	unit of measure	inhibition of growth at 50 µM
CC(=O)C1=CC[C@H]2[C@@H]3CC(=O)C4=C[C@@H](O)CC[C@]4(C)[C@H]3CC[C@]12C	PC-3	%	70.6
CC(=O)[C@@]1(OC(=O)Nc2ccccc2)CC[C@H]2[C@@H]3C=CC4=CC(=O)CC[C@]4(C)[C@H]3CC[C@@]21C	PC-3	%	96.6
CC(=O)C1=CC[C@H]2[C@@H]3CC(=O)C4=C[C@@H](OC(=O)Nc5ccc(Cl)cc5)CC[C@]4(C)[C@H]3CC[C@]12C	PC-3	%	63.4

Lab note: next compound to report on.
Input line: # query: inhibition of growth at 50 µM of entry CC(=O)N1CCN(c2ccc(OCC3COC(Cn4ccnc4)(c4ccc(Cl)cc4Cl)O3)cc2)CC1 (centres undefined)
Output line: 88.5

---

tested on: PC-3; assay: Cytotoxicity against human PC3 cells assessed as growth inhibition at 50 uM after 48 hrs by SRB method; assay type: functional; conditions: PC-3, 48 h, read-out: GI
reported property: inhibition of growth at 50 µM

given smiles	inhibition of growth at 50 µM
CC(=O)C1=CC[C@H]2[C@@H]3CC(=O)C4=C[C@@H](OC(=O)c5ccccc5)CC[C@]4(C)[C@H]3CC[C@]12C	2.9%
CC(=O)[C@@]1(OC(=O)Nc2ccc(Br)cc2)CC[C@H]2[C@@H]3C=CC4=CC(=O)CC[C@]4(C)[C@H]3CC[C@@]21C	26.4%
CC(=O)[C@@]1(OC(=O)Nc2ccc(Cl)cc2)CC[C@H]2[C@@H]3C=CC4=CC(=O)CC[C@]4(C)[C@H]3CC[C@@]21C	15.8%
CC(=O)C1=CC[C@H]2[C@@H]3CC(=O)C4=C[C@@H](OC(=O)c5ccc(Br)cc5)CC[C@]4(C)[C@H]3CC[C@]12C	51.9%
CC(=O)C1=CC[C@H]2[C@@H]3CC(=O)C4=C[C@@H](OC(=O)c5ccc(Cl)cc5)CC[C@]4(C)[C@H]3CC[C@]12C	87.3%

Input line: # query: inhibition of growth at 50 µM of entry CC(=O)C1=CC[C@H]2[C@@H]3CC(=O)C4=C[C@@H](OC(=O)c5ccc(F)cc5)CC[C@]4(C)[C@H]3CC[C@]12C
Output line: 8.3%

Input line: # query: inhibition of growth at 50 µM of entry CC(=O)[C@@]1(OC(=O)c2ccc(Br)cc2)CC[C@H]2[C@@H]3C=CC4=CC(=O)CC[C@]4(C)[C@H]3CC[C@@]21C
Output line: 84.7%

Input line: # query: inhibition of growth at 50 µM of entry CC(=O)[C@@]1(OC(=O)Nc2ccc(I)cc2)CC[C@H]2[C@@H]3C=CC4=CC(=O)CC[C@]4(C)[C@H]3CC[C@@]21C
Output line: 17.8%

---

assay: Cytotoxicity against human HCT15 cells assessed as growth inhibition at 50 uM after 48 hrs by SRB method; format: functional; details: HCT-15, 48 h, read-out: GI
Threshold rule: inhibition of growth at 50 µM greater than or equal to 50% is T; below that, F.

Worked cases, answers included:
given smiles	qualitative label
CC(=O)C1=CC[C@H]2[C@@H]3CC(=O)C4=C[C@@H](OC(=O)c5ccc(I)cc5)CC[C@]4(C)[C@H]3CC[C@]12C	T
CC(=O)C1=CC[C@H]2[C@@H]3CC(=O)C4=C[C@@H](OC(=O)c5ccc(F)cc5)CC[C@]4(C)[C@H]3CC[C@]12C	F
CC(=O)C1=CC[C@H]2[C@@H]3CC(=O)C4=C[C@@H](OC(=O)Nc5ccc(F)cc5)CC[C@]4(C)[C@H]3CC[C@]12C	T

Below: the item to evaluate.
Input line: Is the recorded value of inhibition of growth at 50 µM equal to or greater than 50% for this compound? CC(=O)[C@@]1(OC(=O)c2ccc(Br)cc2)CC[C@H]2[C@@H]3C=CC4=CC(=O)CC[C@]4(C)[C@H]3CC[C@@]21C
Output line: T

---

assay: Cytotoxicity against mouse J774 cells assessed as growth inhibition at 50 uM after 48 hrs by SRB method; format: cell-based; details: read-out: GI
reported property: inhibition at 48 h, 50 µM (%)
Form entry: value (%) — number only.

given smiles	unit of measure	inhibition at 48 h, 50 µM
CC(=O)C1=CC[C@H]2[C@@H]3CC(=O)C4=C[C@@H](OC(=O)Nc5ccc(I)cc5)CC[C@]4(C)[C@H]3CC[C@]12C	%	70.7

Input line: # query: inhibition at 48 h, 50 µM of entry CC(=O)[C@@]1(OC(=O)Nc2ccccc2)CC[C@H]2[C@@H]3C=CC4=CC(=O)CC[C@]4(C)[C@H]3CC[C@@]21C
Output line: 48.2

Input line: # query: inhibition at 48 h, 50 µM of entry CC(=O)C1=CC[C@H]2[C@@H]3CC(=O)C4=C[C@@H](OC(=O)c5ccc(F)cc5)CC[C@]4(C)[C@H]3CC[C@]12C
Output line: 50

Input line: # query: inhibition at 48 h, 50 µM of entry CC(=O)C1=CC[C@H]2[C@@H]3CC(=O)C4=C[C@@H](OC(=O)c5ccccc5)CC[C@]4(C)[C@H]3CC[C@]12C
Output line: 89.3

Input line: # query: inhibition at 48 h, 50 µM of entry CC(=O)C1=CC[C@H]2[C@@H]3CC(=O)C4=C[C@@H](OC(=O)c5ccc(Br)cc5)CC[C@]4(C)[C@H]3CC[C@]12C
Output line: 60.9

---

experiment: Cytotoxicity against human HCT15 cells assessed as growth inhibition at 50 uM after 48 hrs by SRB method; assay type: functional; conditions: HCT-15, 48 h, read-out: GI
Threshold rule: inhibition of growth at 50 µM greater than or equal to 40% is t; below that, f.

Worked cases, answers included:
given smiles	qualitative label
CC(=O)C1=CC[C@H]2[C@@H]3CC(=O)C4=C[C@@H](OC(=O)c5ccc(Cl)cc5)CC[C@]4(C)[C@H]3CC[C@]12C	t
CC(=O)[C@@]1(OC(=O)c2ccc(F)cc2)CC[C@H]2[C@@H]3C=CC4=CC(=O)CC[C@]4(C)[C@H]3CC[C@@]21C	f
CC(=O)C1=CC[C@H]2[C@@H]3CC(=O)C4=C[C@@H](O)CC[C@]4(C)[C@H]3CC[C@]12C	t

Input line: Is the recorded value of inhibition of growth at 50 µM equal to or greater than 40% for this molecule? CC(=O)C1=CC[C@H]2[C@@H]3CC(=O)C4=C[C@@H](OC(=O)Nc5ccc(Br)cc5)CC[C@]4(C)[C@H]3CC[C@]12C
Output line: f

Input line: Is the recorded value of inhibition of growth at 50 µM equal to or greater than 40% for this molecule? CC(=O)C1=CC[C@H]2[C@@H]3CC(=O)C4=C[C@@H](OC(=O)c5ccc(Br)cc5)CC[C@]4(C)[C@H]3CC[C@]12C
Output line: t
